Parameter GI50, tested on KM20L2 colon, listed per item.

Solved entries (count: 2):
molecule	GI50
CN(O)C(=O)SCC(NC(=O)CCC(N)C(=O)O)C(=O)NCC(=O)O (centres undefined)	> 2000 µM
Cc1nnn[n-]1.N.N.N.N.N.[Cl-].[Co+3]	> 100 µM

Query string: Return GI50 (reported value) for this molecule: N.N.N.N.[Co+3].[N-]=[N+]=[N-].[N-]=[N+]=[N-].[N-]=[N+]=[N-]
Result string: > 100 µM

Query string: Supply reported GI50 belonging to this molecule: N.N.N.N.N.NC(=O)c1nn[n-]n1.[Cl-].[Co+3]
Result string: > 100 µM

====

Measured TGI values are reported for all entries that follow.
system: DU-145 prostate; assay: NCI tumour cell line growth inhibition, 48 h
Write down the numeric answer in µM and omit the unit.

molecular_string	test_readout	meas_value
Fc1ccc(C(OCCN2CCN(CCCCl)CC2)c2ccc(F)cc2)cc1	TGI	73.7
CCCCCCCCNc1cc2c3c(c1)CCCN3CCC2	TGI	12.8
O=C1C(Cl)=C(Nc2cccc(F)c2)C(=O)N1Cc1ccc(Cl)cc1	TGI	8.44

Query string: Input O=C(NNC(=S)Nc1ccccc1)c1cc(-c2ccccc2)nc2ccccc12 , output reported TGI.
Result string: 39.1

Query string: Return reported TGI. Input compound: CCN(Cc1ccc(Cl)cc1)c1ccc(CO)c(Cl)c1
Result string: 22.7

====

test system: MDA-MB-231 breast; assay: NCI tumour cell line growth inhibition, 48 h
Listed below: TGI values for each entry.
Numbers only; they are read as µM.

Field: example entries. Status: answers known.
compound	meas_value
CC(=O)OCCCC(NC(=O)OC(C)(C)C)C(=O)NC(CCCOC(C)=O)C(=O)NC(Cc1ccc([N+](=O)[O-])cc1)C(=O)NCC(=O)OCc1ccccc1 (centres undefined)	27.3
CCN1CCC(O)(c2ccc(Oc3ccccc3)cc2)C(C(=O)c2ccc(Oc3ccccc3)cc2)C1 (centres undefined)	30.2

Now turn to the next compound.
Query string: Indicate the recorded TGI value for this compound: OCCOCCN1CCN(CCCN2c3ccccc3Sc3ccc(C(F)(F)F)cc32)CC1
Result string: 24

====

Below is a list of entries, each paired with its recorded TGI value.
system: UACC-257 melanoma; test: NCI tumour cell line growth inhibition, 48 h
Provide the reading as a plain figure in µM.

molecule	TGI (µM)
COC12C=C/C(=C(/C(=O)OCc3cncnc3)C(=O)CCCCCCCCC3(OC)C=C/C(=C(/C(=O)OCc4cncnc4)C(=O)CCCCCCCC1)O3)O2	2.94
COc1ccc(-c2nn(-c3cccc(Cl)c3)cc2-c2cc(-c3cccs3)[nH]c(=S)n2)cc1	18
CN1CN(c2ccccc2)C2(CCN(Cc3csc4ccccc34)CC2)C1=O	31.9
O=C(CCCCCCNC(=O)c1cnc(N(c2ccccc2)c2ccccc2)nc1)NO	30.5
C/C(=N\NC(=S)N1CC2CCC(CC2)C1)c1nccs1	6.06
N#Cc1ccc(OCc2nc(N)nc(N)c2-c2ccc(Cl)c(Cl)c2)cc1	37.2

Query string: Determine reported TGI for CC1OC(OC2C(O)COC(OC3C(C)OC(OC4C(OC(=O)[C@]56CCC(C)(C)C[C@@H]5C5=CCC7[C@@]8(C)C[C@H](O)[C@H](OC9OC(CO)C(O)C(OC%10OC(CO)C(O)C(O)C%10O)C9O)[C@@](C)(CO)[C@@H]8CC[C@@]7(C)[C@]5(C)CC6)OCC(O)C4O)C(O)C3OC3OCC(O)(CO)C3O)C2O)C(O)C(O)C1O (stereo not given in full) ; test system: UACC-257 melanoma.
Result string: 20.9

Query string: Jot down TGI (UACC-257 melanoma) of CN1CCc2c3n(c4cc(Br)ccc24)[C@H](O)CCCC31 (stereo not given in full) .
Result string: 5.61
